Assayed target: human Nav1.7 (hNav1.7) (Homo sapiens, UniProt Q15858)
Construct: expressed in transfected cells
Sequence (Q15858 whole entry): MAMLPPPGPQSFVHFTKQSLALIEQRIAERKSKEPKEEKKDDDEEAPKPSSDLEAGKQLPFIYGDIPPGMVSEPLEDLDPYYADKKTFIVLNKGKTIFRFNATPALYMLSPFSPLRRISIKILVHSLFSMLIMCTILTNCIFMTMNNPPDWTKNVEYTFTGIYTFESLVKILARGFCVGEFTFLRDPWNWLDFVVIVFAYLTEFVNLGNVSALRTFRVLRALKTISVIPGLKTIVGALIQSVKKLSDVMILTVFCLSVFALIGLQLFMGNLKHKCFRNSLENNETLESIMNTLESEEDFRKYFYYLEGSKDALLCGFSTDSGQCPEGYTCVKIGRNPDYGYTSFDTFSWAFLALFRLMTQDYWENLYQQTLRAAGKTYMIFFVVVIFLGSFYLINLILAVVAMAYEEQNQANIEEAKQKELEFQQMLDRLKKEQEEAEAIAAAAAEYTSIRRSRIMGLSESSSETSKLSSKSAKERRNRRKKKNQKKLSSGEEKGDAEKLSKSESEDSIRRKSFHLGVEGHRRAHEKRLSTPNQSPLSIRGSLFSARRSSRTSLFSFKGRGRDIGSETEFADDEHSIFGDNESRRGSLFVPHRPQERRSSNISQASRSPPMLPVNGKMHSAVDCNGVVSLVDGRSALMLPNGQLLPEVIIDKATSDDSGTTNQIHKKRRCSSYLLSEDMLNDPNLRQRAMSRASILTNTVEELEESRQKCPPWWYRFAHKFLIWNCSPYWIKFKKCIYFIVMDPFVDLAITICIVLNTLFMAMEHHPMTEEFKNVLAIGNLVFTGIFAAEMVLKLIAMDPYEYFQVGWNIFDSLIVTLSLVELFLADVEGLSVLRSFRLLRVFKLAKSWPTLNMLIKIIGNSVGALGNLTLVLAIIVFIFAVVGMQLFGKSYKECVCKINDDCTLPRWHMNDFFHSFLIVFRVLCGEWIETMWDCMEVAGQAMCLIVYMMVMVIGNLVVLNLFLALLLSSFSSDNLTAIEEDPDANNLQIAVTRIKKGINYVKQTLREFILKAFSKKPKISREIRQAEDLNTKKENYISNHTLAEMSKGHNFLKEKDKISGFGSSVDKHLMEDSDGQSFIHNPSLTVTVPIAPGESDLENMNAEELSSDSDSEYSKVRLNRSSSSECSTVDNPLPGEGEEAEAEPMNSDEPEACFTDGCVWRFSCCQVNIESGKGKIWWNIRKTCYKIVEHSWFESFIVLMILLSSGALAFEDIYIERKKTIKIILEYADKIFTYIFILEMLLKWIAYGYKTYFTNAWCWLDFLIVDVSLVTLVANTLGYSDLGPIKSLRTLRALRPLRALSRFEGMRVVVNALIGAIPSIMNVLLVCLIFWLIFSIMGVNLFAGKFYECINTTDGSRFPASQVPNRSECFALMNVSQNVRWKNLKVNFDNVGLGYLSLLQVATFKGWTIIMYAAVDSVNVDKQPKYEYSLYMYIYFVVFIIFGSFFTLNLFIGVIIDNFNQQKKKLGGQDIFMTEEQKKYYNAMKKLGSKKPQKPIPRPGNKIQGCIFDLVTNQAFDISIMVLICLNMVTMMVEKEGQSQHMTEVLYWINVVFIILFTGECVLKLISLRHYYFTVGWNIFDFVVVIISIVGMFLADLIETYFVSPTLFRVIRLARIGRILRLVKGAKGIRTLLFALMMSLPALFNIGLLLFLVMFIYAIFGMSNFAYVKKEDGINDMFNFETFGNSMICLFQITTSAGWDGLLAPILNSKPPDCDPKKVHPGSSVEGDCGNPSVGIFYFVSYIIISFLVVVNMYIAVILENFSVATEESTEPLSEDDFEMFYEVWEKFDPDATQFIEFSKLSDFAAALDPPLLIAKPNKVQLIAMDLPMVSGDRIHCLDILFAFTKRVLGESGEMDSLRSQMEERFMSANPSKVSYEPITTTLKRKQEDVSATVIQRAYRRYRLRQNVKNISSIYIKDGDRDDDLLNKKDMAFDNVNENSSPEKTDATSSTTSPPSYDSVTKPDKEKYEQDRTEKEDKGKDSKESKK
Assay text: hNav1.7 whole-cell patch-clamp electrophysiology (automated PatchXpress 7000A or manual) in stably expressing 293 cells
Type: cell-based
Run parameters: average IC50, human Nav1.7
Experimental endpoint: IC50 (µM)
Respond numerically; units are µM and should not be typed.

Please review the following examples before continuing.
[
  {
    "Input smiles": "CNC(=O)c1cccc(Nc2ncnc(N3CCC(c4ccccc4)CC3)n2)c1",
    "Unit info": "µM",
    "IC50": 0.84
  },
  {
    "Input smiles": "CNC(=O)c1cccc(Nc2ncnc(N3CCC(Oc4ccccc4)CC3)n2)c1",
    "Unit info": "µM",
    "IC50": 0.63
  },
  {
    "Input smiles": "CNC(=O)c1cccc(Nc2ncnc(N3CC=C(c4nc(-c5ccccc5)cs4)CC3)n2)c1",
    "Unit info": "µM",
    "IC50": 0.66
  }
]

# evaluate next
input: Would you kindly share the measured IC50 for `CNC(=O)c1cccc(Nc2ncnc(N3CCN(c4cccc(OC(F)(F)F)c4)CC3)n2)c1` ?
output: 0.35

----------
Assayed target: human Nav1.7 (hNav1.7) (Homo sapiens, UniProt Q15858)
Construct: expressed in transfected cells
Assay text: hNav1.7 whole-cell patch-clamp electrophysiology (automated PatchXpress 7000A or manual) in stably expressing 293 cells
Format: cell-based
Run parameters: average IC50, human Nav1.7
t if IC50 is below 6 µM. f if not; exact matches included in f.

Example cases with answers are listed next.
[
  {
    "Input smiles": "CNC(=O)c1cccc(Nc2ncnc(N3CCC(Cc4ccc(F)cc4)CC3)n2)c1",
    "Class": "f"
  },
  {
    "Input smiles": "CNC(=O)c1c(F)ccc(Nc2ncnc(N3CC(Oc4ccc(Cl)cc4)C3)n2)c1F",
    "Class": "t"
  },
  {
    "Input smiles": "CNC(=O)c1cccc(Nc2ncnc(N3CCN(c4ccccc4OC(F)(F)F)CC3)n2)c1",
    "Class": "t"
  }
]

input: For this compound, is IC50 lower than 6 µM? `CNC(=O)c1cccc(Nc2ncnc(N3CC(COc4ccccc4F)C3)n2)c1`
output: f

input: Okay, and `CNC(=O)c1cccc(Nc2ncnc(N3CC(COc4ccccc4Cl)C3)n2)c1` ?
output: f

input: Then this compound: `CNC(=O)c1cccc(Nc2ncnc(N3CCC(Sc4ccc(C)cc4)CC3)n2)c1`
output: f

input: Ok, now `CNC(=O)c1cc(Nc2ncnc(N3CC(Oc4ccc(F)c(Cl)c4)C3)n2)ccc1Cl`
output: t

input: What do you have for `CNC(=O)c1cccc(Nc2ncnc(NCCCc3ccc(Cl)cc3)n2)c1` ?
output: f

----------
Assayed target: human Nav1.7 (hNav1.7) (Homo sapiens, UniProt Q15858)
Construct: expressed in transfected cells
Assay text: hNav1.7 whole-cell patch-clamp electrophysiology (automated PatchXpress 7000A or manual) in stably expressing 293 cells
Assay type: cell-based
Run parameters: average IC50, human Nav1.7
Under this convention, T denotes IC50 strictly below 3 µM and F denotes IC50 at or above 3 µM.

[
  {
    "Compound": "CNC(=O)c1cccc(Nc2ncnc(N3CC(COc4cccc(OC(F)(F)F)c4)C3)n2)c1 [Example 171]",
    "Class": "F"
  },
  {
    "Compound": "CNC(=O)c1cccc(Nc2ncnc(N3CCC(Cc4ccccc4)CC3)n2)c1 [Example 230]",
    "Class": "F"
  },
  {
    "Compound": "CNC(=O)c1cccc(Nc2ncnc(N3CCc4cc(OCC(F)(F)F)ccc4C3)n2)c1 [Example 41]",
    "Class": "T"
  },
  {
    "Compound": "CNC(=O)c1cccc(Nc2ncnc(N3CC(Oc4ccc(F)cc4)C3)n2)c1 [Example 61]",
    "Class": "T"
  },
  {
    "Compound": "CNC(=O)c1cc(F)cc(Nc2ncnc(N3CC(Oc4ccc(F)c(Cl)c4)C3)n2)c1 [Example 121]",
    "Class": "T"
  },
  {
    "Compound": "CNC(=O)c1cccc(Nc2nccc(N3CC(Oc4ccc(Cl)c(C)c4)C3)n2)c1 [Example 19]",
    "Class": "T"
  },
  {
    "Compound": "CNC(=O)c1cccc(Nc2ncnc(N3CC(Oc4ccc(Cl)cc4F)C3)n2)c1 [Example 21]",
    "Class": "T"
  },
  {
    "Compound": "CNC(=O)c1cccc(Nc2nccc(N3CC(Oc4ccc(F)cc4F)C3)n2)c1 [Example 125]",
    "Class": "T"
  }
]

input: Item CNC(=O)c1cc(Nc2ncnc(N3CC(COc4ccc(Cl)cc4)C3)n2)ccc1F [Example 70] : IC50 beneath 3 µM, strictly?
output: T

input: And for CC(C)(C)NC(=O)c1cccc(Nc2ncnc(N3CC(Oc4ccc(F)cc4)C3)n2)c1 [Example 213] ?
output: F

input: Do the same for CNC(=O)c1cccc(Nc2ncnc(N3CCN(Cc4ccccc4OC(F)(F)F)CC3)n2)c1 [Example 191] please
output: F

input: Similarly, CNC(=O)c1cccc(Nc2ncnc(N3CC(COc4cccc5ccccc45)C3)n2)c1 [Example 253] ?
output: F

input: Param item: CNC(=O)c1cccc(Nc2ncnc(N3CCc4cc(OC)ccc4C3)n2)c1 [Example 222]
output: F

input: Also CNC(=O)c1cccc(Nc2ncnc(N3CCc4c(Cl)cccc4C3)n2)c1 [Example 142] , if possible.
output: T

input: Could you do the same for CNC(=O)c1cc(F)cc(Nc2ncnc(N3CC(Oc4ccc(Cl)cc4)C3)n2)c1 [Example 37] , please?
output: T

input: Note, next up: CNC(=O)c1cccc(Nc2ncnc(N3CC(COc4ccc(F)cc4)C3)n2)c1 [Example 163]
output: F

input: Repeat for the following compound: CNC(=O)c1cccc(Nc2ncnc(N3CCc4c(C#N)cccc4C3)n2)c1 [Example 72]
output: T

input: And what about the compound Cc1ccc(N2CCN(c3ncnc(Nc4ccc(Cl)c(C(N)=O)c4)n3)CC2)cc1C [Example 227] ?
output: F

input: Item: CNC(=O)c1cc(F)cc(Nc2ncnc(N3CCN(c4cccc(C)n4)CC3)n2)c1 [Example 116]
output: T

input: Do the same for CNC(=O)c1cccc(Nc2ncnc(N3CCC(Oc4ccc(C(F)(F)F)cc4)CC3)n2)c1 [Example 118] please
output: T

input: What do we get for CNC(=O)c1cccc(Nc2ncnc(N3CC(Oc4cc(C)ccc4F)C3)n2)c1 [Example 155] ?
output: F

input: Repeat with CNC(=O)c1cccc(Nc2ncnc(N3CCN(c4cccc(Cl)c4)CC3)n2)c1 [Example 69]
output: T

input: Now this one: CNC(=O)c1cccc(Nc2ncnc(N3CC=C(c4ccc(OC(F)(F)F)cc4)CC3)n2)c1 [Example 136]
output: T

input: Follow-up entry: CNC(=O)c1cccc(Nc2ncnc(N3CCC(Oc4cccc(Cl)c4)CC3)n2)c1 [Example 122]
output: T

input: Same lookup for CNC(=O)c1cccc(Nc2ncnc(NCCCOc3ccc(OC(F)(F)F)cc3)n2)c1 [Example 13] , please.
output: T

input: Same lookup for CNC(=O)c1cccc(Nc2ncnc(NCCCOc3ccc(Cl)cc3)n2)c1 [Example 152] , please.
output: F

input: Follow-up entry: CNC(=O)c1cccc(Nc2nccc(N3CC(Oc4ccc(F)c(F)c4)C3)n2)c1 [Example 106]
output: T

input: // same read-out, input: CNC(=O)c1cccc(Nc2ncnc(N3CCN(c4ccc(OC(F)(F)F)cc4)CC3)n2)c1C [Example 202]
output: F

input: Input CNC(=O)c1cccc(Nc2ncnc(N3CCC(C#N)(c4ccc(F)cc4)CC3)n2)c1 [Example 245]
output: F

input: Can you check CNC(=O)c1cccc(Nc2ncnc(N3CC(Oc4ccc(Cl)cc4C)C3)n2)c1 [Example 20] next?
output: T

input: Also, CNC(=O)c1cccc(Nc2ncnc(N3CCC(Oc4ccccc4F)CC3)n2)c1 [Example 238] please.
output: F

----------
Assayed target: human Nav1.7 (hNav1.7) (Homo sapiens, UniProt Q15858)
Construct: expressed in transfected cells
Assay text: hNav1.7 whole-cell patch-clamp electrophysiology (automated PatchXpress 7000A or manual) in stably expressing 293 cells
Format: cell-based
Run parameters: average IC50
Description: Compounds were tested on human Nav1.7 (hNav1.7) expressed stably in 293 cells, which have no endogenous sodium channels. Two forms of whole-cell patch-clamp assays were used. In both, peak current through Nav1.7 was evoked by a depolarizing voltage pulse, and currents were monitored as a function of time in response to exposure to several different concentrations of drug. Automated electrophysiology uses the PatchXpress 7000A system. […] IC50 were determined by fitting to the Hill equation.
Experimental endpoint: IC50

[
  {
    "Molecule": "CNC(=O)c1cccc(Nc2ncnc(N3CC(COc4ccccc4C(F)(F)F)C3)n2)c1",
    "Assayed target": "human Nav1.7 (hNav1.7) (Homo sapiens, UniProt Q15858)",
    "IC50": "23.6 µM"
  },
  {
    "Molecule": "CNC(=O)c1cccc(Nc2ncnc(N3CCc4cc(C(O)C(F)(F)F)ccc4C3)n2)c1 (stereo not shown)",
    "Assayed target": "human Nav1.7 (hNav1.7) (Homo sapiens, UniProt Q15858)",
    "IC50": "> 30 µM"
  },
  {
    "Molecule": "CNC(=O)c1cccc(Nc2ncnc(N3CCc4ccc(C(F)(F)F)cc4C3)n2)c1",
    "Assayed target": "human Nav1.7 (hNav1.7) (Homo sapiens, UniProt Q15858)",
    "IC50": "> 30 µM"
  }
]

Next:
input: What value of IC50 has been reported for the following molecule? `CNC(=O)c1cccc(Nc2ncnc(NCCc3nc4cc(Cl)ccc4[nH]3)n2)c1`
output: > 30 µM
